- Test system: NCI-H460
- ASSAY NAME: Cytotoxicity against human NCI-H460 cells after 48 hrs by MTT assay
- Assay type: functional, cell-based
- CONDITIONS: NCI-H460, 48 h
ATTRIBUTE MEASURED: IC50
A bare number is not enough; add the unit after it.

Exam item: For the record Nc1ncc(-c2ccccc2)c2ccncc12 [LOPHOCLADINE B] , what value of IC50 is listed for NCI-H460?
Marked response: 64.6 µM
